The measured values listed here are drawn from PubChem BioAssay AID1159580.

- PROCEDURE_SUMMARY: chemical genetic growth profiling, strain panel (AID 1159580);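 also: tested at 20 µM; growth read once vehicle control cultures reached saturation at 30 °C; 1 = growth at the plate median or of vehicle wells; lower values mean less growth of the strain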
- CONDITION_PARAMETERS: S. cerevisiae deletion strains, growth OD, locus YHR200W, strain rpn10, active compounds read low
Out of some 5,500 compounds screened, about 2,000 (36%) were called active. About 18% were inconclusive and are not listed. The list shows a part of the results.
RECORDED_METRIC: normalized growth
Returns: the value as a bare number; no unit string appended.

Record summary for Cc1ccc(C)c(OCCCC(C)(C)C(=O)O)c1 : reported normalized growth = 0.924

Record NS(=O)(=O)c1cc2c(cc1Cl)NC(C(Cl)Cl)NS2(=O)=O (configuration not stated) , field normalized growth: 1.01

// recorded normalized growth for CCCCN1CCCCC1C(=O)Nc1c(C)cccc1C (configuration not stated) : 0.986

The value of normalized growth measured for the compound O=c1[nH]oc2c1CCNC2 turned out to be 0.975

// normalized growth lookup, compound = Nc1nc2ncc(=O)[nH]c2c(=O)[nH]1 , result: 0.988

CC1(C)OC(=O)C=CC2(C)C1CC(O)C1(C)C2CCC2(C)C(c3ccoc3)OC(=O)C3OC321 (configuration not stated) yielded normalized growth of 1.01

Form: compound = CO/N=C(\C(=O)N[C@@H]1C(=O)N2C(C(=O)O)=C(CSc3nc(=O)c(O)nn3C)CS[C@H]12)c1csc(N)n1 ; normalized growth = 0.984

----------
- PROCEDURE_SUMMARY: chemical genetic growth profiling, strain panel (AID 1159580)
- CONDITION_PARAMETERS: S. cerevisiae deletion strains, growth OD, locus YIR030C, strain dcg1, active compounds read low
About 2,000 (36%) of roughly 5,500 compounds were called active. Not shown: some 18% with an inconclusive outcome. The list shows a part of the results.
RECORDED_METRIC: normalized growth
Number only, no unit.

INSERT INTO measurements (molecule, measurement) VALUES
  ('COc1cc([C@@H]2c3cc4c(c(O)c3C[C@H]3COC(=O)[C@@H]32)OCO4)cc(OC)c1OC', 0.982),
  ('C#CCCCCCCCCCCCC(O)CC(O)COC(C)=O (centres undefined)', 0.962),
  ('COC(=O)[C@@H]1OC(=O)[C@H]2O[C@@]23[C@@]1(C)CCC1[C@@]2(C)CCC(=O)C(C)(C)C2C[C@@H](OC(C)=O)[C@]13C (some centres undefined)', 0.998),
  ('CC(=O)OCC[C@H](C)CCC=C(C)C', 1.02),
  ('CC1(C)O[C@H]2[C@H](O)C[C@](O)(C(N)=O)C[C@H]2O1', 1.03);

Short answer for O=C(O)CN(CC(=O)O)Cc1cc2c(-c3ccccc3C(=O)O)c3cc(CN(CC(=O)O)CC(=O)O)c(=O)cc-3oc2cc1O : normalized growth was 1.02

// normalized growth lookup, molecule = C#CCCCCCCCCCCCC(=O)CC(O)COC(C)=O (centres undefined) , result: 0.945

Notebook: COc1ccc2c(c1OC)C(=O)OC2[C@H]1c2c(cc3c(c2OC)OCO3)CCN1C (some centres undefined) , normalized growth read as 0.997

Summary for this molecule, CC1C[C@H]2CC(=O)[C@H]3CCCN4CCC[C@H]2[C@]34C1 (some centres undefined) : normalized growth is 1.02

----------
- PROCEDURE_SUMMARY: chemical genetic growth profiling, strain panel (AID 1159580)
- CONDITION_PARAMETERS: S. cerevisiae deletion strains, growth OD, locus YMR078C, strain ctf18, active compounds read low
Hit rate of the full screen: of about 5,500 compounds, about 2,000 (36%) were called active. Not shown: some 18% with an inconclusive outcome. The list shows a part of the results.
RECORDED_METRIC: normalized growth
API note: the answer field is a bare number with no unit suffix.

INSERT INTO measurements (compound, measurement) VALUES
  ('CCOC(=O)[C@H](CCc1ccccc1)N[C@@H](C)C(=O)N1[C@H](C(=O)O)C[C@@H]2CCC[C@@H]21', 1.03),
  ('C=CCSCC1Nc2cc(Cl)c(S(N)(=O)=O)cc2S(=O)(=O)N1 (centres undefined)', 1.03),
  ('COc1cc2c(cc1OC)C1Cc3ccc(OC)c(OC)c3CN1CC2 (centres undefined)', 0.968),
  ('CC1C[C@H]2CC(=O)[C@H]3CCCN4CCC[C@H]2[C@]34C1 (some centres undefined)', 1.03);

The compound O=C1OC(c2ccc(O)cc2)(c2ccc(O)cc2)c2ccccc21 showed normalized growth equal to 0.968

Notebook: CC(=O)N[C@@H](CS)C(=O)O , normalized growth read as 1.03

Kindly note the recorded normalized growth for CCCC(=O)O[C@]1(C(=O)CO)CCC2[C@@H]3CCC4=CC(=O)CC[C@]4(C)C3[C@@H](O)C[C@@]21C (some centres undefined) , which is 0.984

// Cc1cccc(C)c1NC1=NCCCS1 : normalized growth value = 0.98

Per the record, CO/N=C(\C(=O)NC1C(=O)N2C(C(=O)O)=C(COC(N)=O)CSC12)c1ccco1 (centres undefined) has normalized growth of 0.0716

Given item CC(C)C(C)/C=C/C(C)[C@H]1CCC2C3=CCC4CC(=O)CC[C@]4(C)C3CC[C@@]21C (some centres undefined) , the value recorded as its normalized growth is 1.02

The compound listed as COc1cc(-c2coc3cc(OC)c(OC)c(OC)c3c2=O)cc(OC)c1OC shows normalized growth equal to 1.01

Per the records, this compound ( CO/N=C(\C(=O)N[C@@H]1C(=O)N2C(C(=O)O)=C(COC(C)=O)CS[C@H]12)c1csc(N)n1 ) has normalized growth equal to 0.98

According to the records, this compound CCN(CC)C(=O)c1cccc(C)c1 displays normalized growth of 0.994

The reported normalized growth of the compound CC1(C)O[C@@H]2CC3C4CCC5=CC(=O)CCC5(C)C4(F)C(O)CC3(C)[C@]2(C(=O)CCl)O1 (some centres undefined) was 0.99

----------
- PROCEDURE_SUMMARY: chemical genetic growth profiling, strain panel (AID 1159580);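 also: tested at 20 µM; growth read once vehicle control cultures reached saturation at 30 °C; 1 = growth at the plate median or of vehicle wells; lower values mean less growth of the strain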
- CONDITION_PARAMETERS: S. cerevisiae deletion strains, growth OD, locus YNL224C, strain SQS1, active compounds read low
Screen size: about 5,500 compounds; about 2,000 (36%) were called active. Another 18% or so got no clear call; they are omitted. The list shows a part of the results.
Catalogue of normalized growth values
Reply briefly: the number, and no unit.

INSERT INTO results (molecule, recorded_metric, measurement) VALUES
  ('CCCN1CCC[C@@H](c2cccc(O)c2)C1', 'normalized growth', 0.993),
  ('CCCN(CCC)C1CCc2cccc(O)c2C1 (stereo not drawn)', 'normalized growth', 1.02);

Proceed to the following item.
Item: Cc1cccc(C)c1NC1=NCCCS1 | normalized growth: 1

----------
- PROCEDURE_SUMMARY: chemical genetic growth profiling, strain panel (AID 1159580);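 also: tested at 20 µM; growth read once vehicle control cultures reached saturation at 30 °C; 1 = growth at the plate median or of vehicle wells; lower values mean less growth of the strain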
- CONDITION_PARAMETERS: S. cerevisiae deletion strains, growth OD, locus YLR268W, strain sec22
The whole screen tested about 5,500 compounds, of which about 2,000 (36%) were called active. Roughly 18% stayed inconclusive and do not appear here. Rule as the data show it: active = normalized growth mostly below about 0.91 (no sharp cut-off); inconclusive = no clear call, values can overlap the other calls; inactive = mostly above about 0.92. This is one part of the list.
A correct response names exactly one class from active, inactive

INSERT INTO measurements (molecule, group) VALUES
  ('Cc1ccc(C)c(OCCCC(C)(C)C(=O)O)c1', 'active');

Test call, this molecule: CC1=CC2C(CC1=O)C(C)=CCC2C(C)C (configuration not stated) inactive

Any idea what this test logged for CC(C)C(C)/C=C/C(C)C1CCC2C3=CC=C4CC(O)CCC4(C)C3CCC21C (configuration not stated) ? inactive

Would you mind telling me which call this test gave CC(C)C(C)/C=C/C(C)[C@H]1CCC2C3=CCC4CC(=O)CC[C@]4(C)C3CC[C@@]21C (some centres not stated) ? inactive

Just curious, what result did C#CCCCCCCCCCCCC(=O)CC(O)COC(C)=O (configuration not stated) get here? active

# outcome recorded in this test, key = C=C1CCC2C(CC2(C)C)C(=C)CC/C1=N\O (configuration not stated) inactive

I would be grateful if you could indicate the recorded call for CC(C)C(=O)Nc1ccc([N+](=O)[O-])c(C(F)(F)F)c1 . inactive

----------
- PROCEDURE_SUMMARY: chemical genetic growth profiling, strain panel (AID 1159580);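 also: tested at 20 µM; growth read once vehicle control cultures reached saturation at 30 °C; 1 = growth at the plate median or of vehicle wells; lower values mean less growth of the strain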
- CONDITION_PARAMETERS: S. cerevisiae deletion strains, growth OD, locus YAL013W, strain DEP1, active compounds read low
About 2,000 (36%) of roughly 5,500 compounds were called active. About 18% were inconclusive and are not listed. Some of the results follow.
RECORDED_METRIC: normalized growth
Answer with a bare number; do not write a unit.

INSERT INTO results (compound, recorded_metric, measurement) VALUES
  ('Nc1nc2ncc(=O)[nH]c2c(=O)[nH]1', 'normalized growth', 1);

Field normalized growth (entry CO/N=C(/C(=O)N[C@@H]1C(=O)N2C(C(=O)O)=C(COC(C)=O)CS[C@H]12)c1csc(N)n1 ) reads 1.01

get_value(item= CC[N+](CC)(CC)CCOc1cccc(OCC[N+](CC)(CC)CC)c1OCC[N+](CC)(CC)CC , readout=normalized growth) returns 1.01

normalized growth measured on Nc1ccc(C(=O)/C(=C\c2cccc([N+](=O)[O-])c2)C(=O)c2ccc(-c3ccccc3)cc2)cc1 = 0.99

Documented normalized growth of O=[N+]([O-])c1ccc(N2CCCN(C(=S)Nc3ccc(Cl)cc3Cl)CC2)nc1 : 0.966

Looking up CO[C@@]1(NC(=O)CSCC#N)C(=O)N2C(C(=O)O)=C(CSc3nnnn3C)CSC21 (stereo partly drawn) , I found its normalized growth recorded as 1.01
